# System: Plasmodium berghei
# method notes: Antimalarial activity against exo-erythrocytic form of Plasmodium berghei infected in human HepG2 cells after 48 hrs
# Assay type: functional, organism-based
# condition notes: HepG2, 48 h
pIC50: −log10 of the molar value.

# molecule smiles, subject of test, pIC50
records = [
    ("O=C(CCCCCONC(=O)c1ccc(F)cc1)NO", "Plasmodium berghei", 5.64),
    ("O=C(CCCCCONC(=O)c1ccccc1F)NO", "Plasmodium berghei", 5.90),
    ("O=C1C(O)=C([C@H]2CC[C@H](c3ccc(Cl)cc3)CC2)C(=O)c2ccccc21", "Plasmodium berghei", 9.80),
    ("CCCCc1ccc(C(=O)NOCCCCCC(=O)NO)cc1", "Plasmodium berghei", 5.75),
]

---

Entries annotated with measured selectivity ratio
# method notes: Selectivity index, ratio of IC50 for human HepG2 cells to IC50 for exo-erythrocytic form of Plasmodium berghei

# molecule smiles, selectivity ratio
data = [
    ("O=C1C(O)=C([C@H]2CC[C@H](c3ccc(Cl)cc3)CC2)C(=O)c2ccccc21", "> 64100"),
    ("CCCCCOc1ccc(C(=O)NOCCCCCC(=O)NO)cc1", "> 10"),
    ("CCCCCCOc1ccc(C(=O)NOCCCCCC(=O)NO)cc1", "> 6"),
    ("CCCCOc1ccc(C(=O)NOCCCCCC(=O)NO)cc1", "> 23"),
]
